TESTED ON: GTPBP3 tRNA modification GTPase GTPBP3, mitochondrial (Homo sapiens, UniProt Q969Y2)
Construct: isoTOP-ABPP experiments performed in cell lysates (in vitro); endogenous in cells; host or cells: soluble proteome of human cancer cell lines (MDA-MB-231; Ramos and Jurkat also prepared)
Sequence (Q969Y2 21-492): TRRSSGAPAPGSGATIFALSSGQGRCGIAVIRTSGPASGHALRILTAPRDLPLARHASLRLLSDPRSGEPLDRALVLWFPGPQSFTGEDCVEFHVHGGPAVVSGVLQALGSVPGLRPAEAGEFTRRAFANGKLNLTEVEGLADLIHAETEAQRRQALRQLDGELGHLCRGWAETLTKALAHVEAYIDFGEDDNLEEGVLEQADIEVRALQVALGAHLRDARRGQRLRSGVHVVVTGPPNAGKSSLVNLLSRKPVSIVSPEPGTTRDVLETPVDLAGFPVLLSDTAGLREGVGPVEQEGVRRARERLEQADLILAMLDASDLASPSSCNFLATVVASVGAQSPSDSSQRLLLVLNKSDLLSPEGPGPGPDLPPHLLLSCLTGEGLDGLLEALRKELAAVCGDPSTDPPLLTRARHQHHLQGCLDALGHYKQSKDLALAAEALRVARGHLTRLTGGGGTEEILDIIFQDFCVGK
METHOD DESCRIPTION: competitive isoTOP-ABPP
Format: binding
CONDITION NOTES: 50 uM_231_sol_in vitro
For each record, write down the corresponding isoTOP-ABPP ratio, lysine Q969Y2_K492.
One number for each entry.

// below: answered compounds
[
  {
    "COMPOUND": "O=C(ON1C(=O)CCC1=O)c1cc(C(F)(F)F)cc(C(F)(F)F)c1",
    "ENDPOINT RESULT": 1.9
  },
  {
    "COMPOUND": "O=C(Oc1c(F)c(F)c(C(F)(F)F)c(F)c1F)c1cc(C(F)(F)F)cc(C(F)(F)F)c1",
    "ENDPOINT RESULT": 1.7
  },
  {
    "COMPOUND": "N#Cc1ccc(C(=O)Oc2ccc([N+](=O)[O-])cc2[N+](=O)[O-])cc1 [fragment 44, 2,4-Dinitrophenyl 4-cyanobenzoate]",
    "ENDPOINT RESULT": 0.9
  },
  {
    "COMPOUND": "O=C(CCc1ccc2c(c1)OCO2)Oc1ccc([N+](=O)[O-])cc1[N+](=O)[O-]",
    "ENDPOINT RESULT": 1.4
  }
]

Let us examine a further case.
// query Which isoTOP-ABPP ratio, lysine Q969Y2_K492 value is on record for O=C(Oc1c(F)c(F)cc(F)c1F)c1cc(C(F)(F)F)cc(C(F)(F)F)c1 ?
// result 1.4

====

TESTED ON: POLR2L DNA-directed RNA polymerases I, II, and III subunit (Homo sapiens, UniProt P62875)
Construct: isoTOP-ABPP experiments performed in cell lysates (in vitro); endogenous in cells; host or cells: soluble proteome of human cancer cell lines (MDA-MB-231, Ramos, Jurkat)
METHOD DESCRIPTION: competitive isoTOP-ABPP
Assay type: binding
CONDITION NOTES: P62875_K67; 50 uM, 231 sol, in vitro
Consider the following molecules; for each one, report its R value (DMSO/fragment) for probe 1 labeling.
One number for each entry.

Reference set (4 entries):
[
  {
    "MOLECULE": "COc1cc(CCC(=O)Oc2c(F)c(F)c(F)c(F)c2F)cc(OC)c1OC",
    "ENDPOINT RESULT": 1.1
  },
  {
    "MOLECULE": "Cn1cc(CC(=O)Oc2c(F)c(F)c(F)c(F)c2F)c2ccccc21",
    "ENDPOINT RESULT": 0.9
  },
  {
    "MOLECULE": "O=C(Oc1c(F)c(F)c(F)c(F)c1F)C(c1ccccc1)c1ccccc1 [fragment 20, Pentafluorophenyl 2,2-diphenylacetate]",
    "ENDPOINT RESULT": 0.9
  },
  {
    "MOLECULE": "O=C(Oc1c(F)c(F)c(F)c(F)c1F)c1cc(C(F)(F)F)cc(C(F)(F)F)c1",
    "ENDPOINT RESULT": 0.8
  }
]

Shifting focus to the molecule that follows.
// query Quick check: R value (DMSO/fragment) for probe 1 labeling on POLR2L DNA-directed RNA polymerases I, II, and III subunit (Homo sapiens, UniProt P62875), item O=C(CCc1cn(-c2ccccc2)nc1-c1ccccc1)Oc1c(F)c(F)c(F)c(F)c1F ?
// result 1.0

====

TESTED ON: ARL6IP1 ADP-ribosylation factor-like protein 6-interacting (Homo sapiens, UniProt Q15041)
Construct: isoTOP-ABPP experiments performed in cell lysates (in vitro); endogenous in cells; host or cells: soluble proteome of human cancer cell lines (MDA-MB-231; Ramos and Jurkat also prepared)
Sequence (Q15041 whole entry): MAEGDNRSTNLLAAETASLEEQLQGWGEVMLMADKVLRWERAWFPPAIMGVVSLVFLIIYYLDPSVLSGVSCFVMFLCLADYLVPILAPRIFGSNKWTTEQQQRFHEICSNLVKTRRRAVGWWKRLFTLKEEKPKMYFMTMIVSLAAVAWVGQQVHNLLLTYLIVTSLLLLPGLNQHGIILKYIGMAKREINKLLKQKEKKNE
METHOD DESCRIPTION: competitive isoTOP-ABPP
Type: binding
CONDITION NOTES: 50 uM_231_sol_in vitro
I'd be grateful if you could share measured isoTOP-ABPP ratio, lysine Q15041_K188 for these entries.
Give bare numbers.

Use the examples below as a reference point.
[
  {
    "MOLECULE": "O=C(ON1C(=O)CCC1=O)c1cc(C(F)(F)F)cc(C(F)(F)F)c1 [fragment 46]",
    "ENDPOINT RESULT": 1.2
  },
  {
    "MOLECULE": "N#Cc1ccc(C(=O)Oc2ccc([N+](=O)[O-])cc2[N+](=O)[O-])cc1 [fragment 44, 2,4-Dinitrophenyl 4-cyanobenzoate]",
    "ENDPOINT RESULT": 1.1
  },
  {
    "MOLECULE": "O=C(Oc1c(F)c(F)cc(F)c1F)c1cc(C(F)(F)F)cc(C(F)(F)F)c1 [fragment 48]",
    "ENDPOINT RESULT": 3.5
  },
  {
    "MOLECULE": "O=C(CCc1ccc2c(c1)OCO2)Oc1ccc([N+](=O)[O-])cc1[N+](=O)[O-] [fragment 45]",
    "ENDPOINT RESULT": 2.2
  }
]

# input for lookup
// query Please report the recorded isoTOP-ABPP ratio, lysine Q15041_K188 for O=C(Oc1c(F)c(F)c(C(F)(F)F)c(F)c1F)c1cc(C(F)(F)F)cc(C(F)(F)F)c1 [fragment 47] .
// result 3.5

====

TESTED ON: TTR Transthyretin (Homo sapiens)
Construct: isoTOP-ABPP experiments performed in cell lysates (in vitro); endogenous in cells; host or cells: MDA-MB-231 soluble lysate
METHOD DESCRIPTION: competitive isoTOP-ABPP
Format: binding
CONDITION NOTES: 50 uM_231_sol_in vitro
READOUT KIND: isoTOP-ABPP ratio, lysine P02766_K35
Numbers only.

# annotated cases, reported isoTOP-ABPP ratio, lysine P02766_K35 shown
[
  {
    "COMPOUND": "N#Cc1ccc(C(=O)Oc2ccc([N+](=O)[O-])cc2[N+](=O)[O-])cc1 [fragment 44, 2,4-Dinitrophenyl 4-cyanobenzoate]",
    "TESTED ON": "TTR Transthyretin (Homo sapiens)",
    "isoTOP-ABPP ratio, lysine P02766_K35": 20.0
  },
  {
    "COMPOUND": "O=C(ON1C(=O)CCC1=O)c1cc(C(F)(F)F)cc(C(F)(F)F)c1",
    "TESTED ON": "TTR Transthyretin (Homo sapiens)",
    "isoTOP-ABPP ratio, lysine P02766_K35": 2.3
  },
  {
    "COMPOUND": "O=C(Oc1c(F)c(F)c(C(F)(F)F)c(F)c1F)c1cc(C(F)(F)F)cc(C(F)(F)F)c1",
    "TESTED ON": "TTR Transthyretin (Homo sapiens)",
    "isoTOP-ABPP ratio, lysine P02766_K35": 1.6
  }
]

// query Name the reported isoTOP-ABPP ratio, lysine P02766_K35 value associated with the compound O=C(CCc1ccc2c(c1)OCO2)Oc1ccc([N+](=O)[O-])cc1[N+](=O)[O-]
// result 2.5

====

TESTED ON: UCHL5 Ubiquitin carboxyl-terminal hydrolase isozyme L5 (Homo sapiens, UniProt Q9Y5K5)
Construct: endogenous in cells; host or cells: MDA-MB-231 (soluble fraction of lysate)
Sequence (Q9Y5K5 1-329): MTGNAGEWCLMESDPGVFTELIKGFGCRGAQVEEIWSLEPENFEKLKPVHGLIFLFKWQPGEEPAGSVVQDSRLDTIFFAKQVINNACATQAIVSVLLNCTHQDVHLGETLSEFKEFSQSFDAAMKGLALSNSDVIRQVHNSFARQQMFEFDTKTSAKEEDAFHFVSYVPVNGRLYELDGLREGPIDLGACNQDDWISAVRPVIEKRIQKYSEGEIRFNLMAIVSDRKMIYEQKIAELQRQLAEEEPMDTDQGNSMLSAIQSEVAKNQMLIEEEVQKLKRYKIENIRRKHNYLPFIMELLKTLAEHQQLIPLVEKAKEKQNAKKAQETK
METHOD DESCRIPTION: competitive isoTOP-ABPP
Format: binding
CONDITION NOTES: 50 uM, in vitro, sol, 231
READOUT KIND: isoTOP-ABPP ratio (R) at liganded lysine Q9Y5K5_K323
Answers are plain numbers.

These solved cases illustrate the format of a correct answer.
[
  {
    "MOLECULE": "O=C(Oc1ccc([N+](=O)[O-])cc1[N+](=O)[O-])c1ccc2ccccc2n1",
    "ENDPOINT RESULT": 1.0
  },
  {
    "MOLECULE": "O=C(Oc1ccc([N+](=O)[O-])cc1[N+](=O)[O-])c1ccc(-c2ccccc2)cc1",
    "ENDPOINT RESULT": 0.9
  }
]

// query I have this molecule here, O=C(Oc1ccc([N+](=O)[O-])cc1[N+](=O)[O-])c1ccc(Oc2ccccc2)cc1 [fragment 39, 2,4-Dinitrophenyl 4-phenoxybenzoate] , and I need its recorded isoTOP-ABPP ratio (R) at liganded lysine Q9Y5K5_K323.
// result 0.9
